# Tested on: CCRIS mutagenicity, Ames/micronucleus/aberration tests
# TEST NAME: CCRIS mutagenicity studies
# CONDITION: End Point: IN VITRO CHROMOSOMAL ABERRATIONS; Test System: CHINESE HAMSTER OVARY CELLS; Metabolic Activation: RAT, LIVER, S-9, AROCLOR 1254
# From the text: The CCRIS database contains chemical records with carcinogenicity, mutagenicity, tumor promotion, and tumor inhibition test results. It was developed by the National Cancer Institute (NCI). Data are derived from studies cited in primary journals, current awareness tools, NCI reports, and other sources. Test results have been reviewed by experts in carcinogenesis and mutagenesis. CCRIS provides historical information from the years 1985 - 2011. It is no longer updated. […]
Activity calls are given as the source filed them. How the calls were made is not given here.
Form entry, call: pick from 1.0 (active), 0.0 (inactive)

Incoming: Could you check what this test reported for `ClC(Cl)C(Cl)Cl` ?
Outgoing: 0.0

Incoming: Could you check what this test reported for `ClC(Cl)=C(Cl)C(Cl)=C(Cl)Cl` ?
Outgoing: 0.0

Incoming: Could you check what this test reported for `NS(=O)(=O)c1cc2c(cc1Cl)NCNS2(=O)=O` ?
Outgoing: 0.0

Incoming: Could you check what this test reported for `CC(C)[N+](=O)[O-]` ?
Outgoing: 0.0

Incoming: Could you check what this test reported for `Clc1cc2c(cc1Cl)Oc1cc(Cl)c(Cl)cc1O2` ?
Outgoing: 0.0

Incoming: Could you check what this test reported for CCCCCCCCS(=O)C(C)Cc1ccc2c(c1)OCO2 (configuration not stated) ?
Outgoing: 0.0

Incoming: Could you check what this test reported for `Cc1ccc(Cl)cc1N` ?
Outgoing: 0.0

Incoming: Could you check what this test reported for `ClC(Cl)C(Cl)(Cl)Cl` ?
Outgoing: 0.0

Incoming: Could you check what this test reported for `ClC(Cl)(Cl)C(Cl)(Cl)Cl` ?
Outgoing: 0.0

Incoming: Could you check what this test reported for `c1ccc(NNc2ccccc2)cc1` ?
Outgoing: 1.0

Incoming: Could you check what this test reported for `CCCCOCCOCCOCc1cc2c(cc1CCC)OCO2` ?
Outgoing: 0.0

Incoming: Could you check what this test reported for `C/C=C/C=O` ?
Outgoing: 1.0

Incoming: Could you check what this test reported for `Oc1ccc(O)cc1` ?
Outgoing: 1.0

Incoming: Could you check what this test reported for `Nc1nc(N)nc(N)n1` ?
Outgoing: 0.0

Incoming: Could you check what this test reported for `O=C(O)COc1cc(Cl)c(Cl)cc1Cl` ?
Outgoing: 1.0

Incoming: Could you check what this test reported for `ClC(Cl)=C(c1ccc(Cl)cc1)c1ccc(Cl)cc1` ?
Outgoing: 0.0

Incoming: Could you check what this test reported for `Cc1cc(Cl)ccc1N` ?
Outgoing: 1.0

###

# System: CCRIS mutagenicity, Ames/micronucleus/aberration tests
# TEST NAME: CCRIS mutagenicity studies
# CONDITION: Test System: AMES SALMONELLA TYPHIMURIUM; Strain/Indicator: TA97; Metabolic Activation: RAT, LIVER, S-9, AROCLOR 1254; Method: PREINCUBATION
Activity calls are given as the source filed them. The rule behind the calls is not given here.
Form entry, call: pick from t for active, f for inactive

Incoming: Could you check what this test reported for `O=C(O)c1ccccc1` ?
Outgoing: f

Incoming: Could you check what this test reported for `Nc1ccc(N)c2c1C(=O)c1c(N)ccc(N)c1C2=O` ?
Outgoing: t

Incoming: Could you check what this test reported for `C[C@](N)(Cc1ccc(O)c(O)c1)C(=O)O` ?
Outgoing: f
